Biological target: MELK (Homo sapiens)
Construct: purchased Millipore Corporation
Sequence (Q14680 whole entry): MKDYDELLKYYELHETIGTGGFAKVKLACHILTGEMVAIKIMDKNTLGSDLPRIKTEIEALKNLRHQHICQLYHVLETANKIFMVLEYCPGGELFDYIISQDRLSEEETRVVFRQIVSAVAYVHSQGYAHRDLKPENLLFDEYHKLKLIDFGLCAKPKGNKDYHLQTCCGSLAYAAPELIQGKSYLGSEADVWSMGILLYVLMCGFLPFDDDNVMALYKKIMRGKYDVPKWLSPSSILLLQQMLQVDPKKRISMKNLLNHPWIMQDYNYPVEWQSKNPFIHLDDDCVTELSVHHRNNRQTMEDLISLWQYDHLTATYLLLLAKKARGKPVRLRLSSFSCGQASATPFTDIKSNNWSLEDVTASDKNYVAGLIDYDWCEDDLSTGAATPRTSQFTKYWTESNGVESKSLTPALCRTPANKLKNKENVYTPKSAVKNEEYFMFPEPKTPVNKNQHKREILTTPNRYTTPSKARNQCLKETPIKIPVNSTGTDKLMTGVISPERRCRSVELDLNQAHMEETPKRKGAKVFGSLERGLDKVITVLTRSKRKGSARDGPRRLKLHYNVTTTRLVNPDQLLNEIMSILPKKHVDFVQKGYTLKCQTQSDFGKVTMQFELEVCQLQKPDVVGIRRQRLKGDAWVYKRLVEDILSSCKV
Assay: Panel of 270 human kinases (Millipore)
Assay type: biochemical
In this section we review reported inhibition at 1 µM values for a set of compounds.
Outcome Measure: inhibition at 1 µM

{"columns": ["Compound String", "Reported"],
 "data": [
  ["CC(C)C[C@@H](NC(=O)c1ccc2[nH]nc(-c3ccc(N4CCN(C5COC5)CC4)cc3)c2c1)c1ccccc1Cl", "51%"],
  ["O=C(N[C@H](c1ccccn1)C1CCCC1)c1ccc2[nH]nc(-c3ccc(N4CCN(C5COC5)CC4)cc3)c2c1", "95%"],
  ["CC1=CC2(CCN(C)CC2)Oc2ccc(-c3n[nH]c4ccc(C(=O)N[C@H](c5ccccn5)C5CCCC5)cc34)cc21", "93%"]
]}

---

Target: human TTK (Homo sapiens)
Construct: amino terminal GST fusion of full length human TTK; purchased Invitrogen
Sequence (P33981 whole entry, the tested form may be a part): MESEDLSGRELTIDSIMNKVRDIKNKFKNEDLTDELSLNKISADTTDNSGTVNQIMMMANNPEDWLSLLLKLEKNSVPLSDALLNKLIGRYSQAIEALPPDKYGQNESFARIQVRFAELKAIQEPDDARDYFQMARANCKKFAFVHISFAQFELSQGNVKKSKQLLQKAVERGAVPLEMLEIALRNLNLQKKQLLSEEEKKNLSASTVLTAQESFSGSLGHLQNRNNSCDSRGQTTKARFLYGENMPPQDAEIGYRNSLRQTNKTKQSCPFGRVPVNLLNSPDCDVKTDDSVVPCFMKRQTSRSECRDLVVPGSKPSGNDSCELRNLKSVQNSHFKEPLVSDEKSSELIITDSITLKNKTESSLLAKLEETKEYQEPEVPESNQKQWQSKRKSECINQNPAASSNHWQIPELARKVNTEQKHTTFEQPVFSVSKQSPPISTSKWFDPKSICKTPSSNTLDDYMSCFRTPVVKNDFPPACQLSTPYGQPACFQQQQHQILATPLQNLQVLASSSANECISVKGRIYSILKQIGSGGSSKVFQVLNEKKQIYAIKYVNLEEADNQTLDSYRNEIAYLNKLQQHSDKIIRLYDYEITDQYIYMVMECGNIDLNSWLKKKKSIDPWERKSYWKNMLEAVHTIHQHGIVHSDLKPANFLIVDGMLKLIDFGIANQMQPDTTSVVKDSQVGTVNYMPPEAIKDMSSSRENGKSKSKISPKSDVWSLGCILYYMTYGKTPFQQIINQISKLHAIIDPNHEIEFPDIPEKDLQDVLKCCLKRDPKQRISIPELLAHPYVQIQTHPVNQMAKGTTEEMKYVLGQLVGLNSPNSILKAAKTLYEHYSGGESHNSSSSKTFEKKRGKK
Experiment: TTK inhibition assay (indirect ELISA)
Assay type: biochemical
Details: read-out: TTK IC50 Range
pIC50: −log10 of the molar value.
In this section we review reported pIC50 values for a set of molecules.

{"columns": ["Molecule", "pIC50"],
 "data": [
  ["C[C@@H](O)C(=O)N1CCC(Oc2ccc(-c3n[nH]c4ccc(C(=O)N[C@H](c5ccccc5)C5CC5)cc34)cc2)CC1", "> 7.00"],
  ["CN1CCC(Oc2ccc(-c3n[nH]c4ccc(C(=O)NC(c5ccccn5)C5CC5)cc34)cc2S(C)(=O)=O)CC1 (stereo not shown)", "> 7.00"],
  ["CN1C2CCC1CC(Oc1ccc(-c3n[nH]c4ccc(C(=O)N[C@H](c5ccccn5)C5CC5)cc34)cc1)C2 (stereo partly shown)", "> 7.00"],
  ["O=C(N[C@H](c1ccccn1)C1CCCC1)c1ccc2[nH]nc(-c3ccc(OC4CCN(C[C@@H](O)C(F)(F)F)CC4)cc3)c2c1", "> 7.00"]
]}

---

Test system: TICs (Ovarian 2393A)
Experiment: Ovarian tumor-initiating cell growth inhibition (Alamar Blue)
Format: cell-based
Details: 144 h; Ovarian 2393A TICs, 6 days; read-out: Tumor Initiating Cell GI50 Range Ovarain 2393A
In this section we review reported GI50 values for a set of molecules.

{"columns": ["Molecule", "Test Target", "GI50"],
 "data": [
  ["O=C(N[C@H](c1ccccn1)C1CCCC1)c1ccc2[nH]nc(-c3ccc(N4C5COCC4CC(O)C5)cc3)c2c1 (some centres unmarked) [Example A420]", "TICs (Ovarian 2393A)", "< 100 nM"],
  ["CC(C)C(NC(=O)c1ccc2[nH]nc(-c3ccc(O[C@H]4C[C@H]5CC[C@@H](C4)N5C)cc3)c2c1)c1ccccc1Cl (some centres unmarked) [Example A279]", "TICs (Ovarian 2393A)", "100 to 500 nM"],
  ["CC(C)[C@H](NC(=O)c1ccc2[nH]nc(-c3ccc(OC4CCN(C)CC4)c(S(C)(=O)=O)c3)c2c1)c1ccccc1Cl [Example A259]", "TICs (Ovarian 2393A)", "< 100 nM"],
  ["O=CN1CCC(Oc2ccc(-c3n[nH]c4ccc(C(=O)N[C@H](c5ncccc5Cl)C5CC5)cc34)cc2)CC1 [Example A212]", "TICs (Ovarian 2393A)", "< 100 nM"],
  ["O=C(N[C@H](c1ccccc1F)C1CC1)c1ccc2[nH]nc(-c3ccc(N4C5CCC4CC(O)C5)cc3)c2c1 (some centres unmarked) [Example A265]", "TICs (Ovarian 2393A)", "< 100 nM"],
  ["CC(C)C[C@H](NC(=O)c1ccc2[nH]nc(-c3ccc(N4CCN(C5COC5)CC4)cc3)c2c1)c1ccccc1Cl [Example A299]", "TICs (Ovarian 2393A)", "< 100 nM"],
  ["CN1C2CCC1CC(Oc1ccc(-c3n[nH]c4ccc(C(=O)N[C@@H](c5ccccc5Cl)C5CC5)cc34)cc1)C2 (some centres unmarked) [Example A234]", "TICs (Ovarian 2393A)", "100 to 500 nM"],
  ["O=C(N[C@H](c1ccccn1)C1CC1)c1ccc2[nH]nc(-c3ccc(OC4CC5CCC(C4)N5C4COC4)cc3)c2c1 (some centres unmarked) [Example A320]", "TICs (Ovarian 2393A)", "100 to 500 nM"],
  ["CN1[C@@H]2CC[C@H]1C[C@@H](Oc1ccc(-c3n[nH]c4ccc(C(=O)N[C@H](c5ccccn5)C5CC5)cc34)cc1)C2 [Example A213]", "TICs (Ovarian 2393A)", "< 100 nM"],
  ["O=C(N[C@H](c1ccccn1)C1CC1)c1ccc2[nH]nc(-c3ccc4c(c3)C(=O)CC3(CCN(C5COC5)CC3)O4)c2c1 [Example A264]", "TICs (Ovarian 2393A)", "100 to 500 nM"],
  ["C[C@@H](O)CN1CCC(Oc2ccc(-c3n[nH]c4ccc(C(=O)N[C@H](c5ccccn5)C5CC5)cc34)cc2)CC1 [Example A221]", "TICs (Ovarian 2393A)", "100 to 500 nM"],
  ["CC(C)CC(NC(=O)c1ccc2[nH]nc(-c3ccc(N4CCN(C5COC5)CC4)cc3)c2c1)c1ccccc1Cl (centres unmarked) [Example A298]", "TICs (Ovarian 2393A)", "< 100 nM"],
  ["CC(C)[C@H](NC(=O)c1ccc2[nH]nc(-c3ccc(OC4CC5CCC(C4)N5CCO)cc3)c2c1)c1ccccc1Cl (some centres unmarked) [Example A337]", "TICs (Ovarian 2393A)", "< 100 nM"],
  ["CC(C)[C@H](NC(=O)c1ccc2[nH]nc(-c3ccc(OC4CCN(C5COC5)CC4)cc3)c2c1)c1ccccc1Cl [Example A332]", "TICs (Ovarian 2393A)", "< 100 nM"],
  ["CC(C)C[C@@H](NC(=O)c1ccc2[nH]nc(-c3ccc(N4CCN(C5COC5)CC4)cc3)c2c1)c1ccccc1Cl [Example A300]", "TICs (Ovarian 2393A)", "100 to 500 nM"],
  ["CN1CCC(Oc2ccc(-c3n[nH]c4ccc(C(=O)N[C@@H](c5ccccn5)C5CC5)cc34)cc2Cl)CC1 [Example A386]", "TICs (Ovarian 2393A)", "> 500 nM"],
  ["O=C(N[C@H](c1ccccn1)C1CC1)c1ccc2[nH]nc(-c3ccc(N4CC(C5COC5)C4)cc3)c2c1 [Example A311]", "TICs (Ovarian 2393A)", "< 100 nM"],
  ["O=C(NC(c1ccccn1)C1CCCC1)c1ccc2[nH]nc(-c3ccc(N4CCN(C5COC5)CC4)cc3)c2c1 (centres unmarked) [Example A402]", "TICs (Ovarian 2393A)", "< 100 nM"],
  ["CN1[C@@H]2CC[C@H]1C[C@@H](Oc1ccc(-c3n[nH]c4ccc(C(=O)NC(c5ccccn5)C5CCCC5)cc34)cc1)C2 (some centres unmarked) [Example A244]", "TICs (Ovarian 2393A)", "100 to 500 nM"],
  ["CC(C)[C@H](NC(=O)c1ccc2[nH]nc(-c3ccc(N4C5COCC4CC(O)C5)cc3)c2c1)c1ccccc1Cl (some centres unmarked) [Example A421]", "TICs (Ovarian 2393A)", "< 100 nM"]
]}
